The following binders are listed with their measured IC90 values.
- target: T1, alphaEbeta7 on alphaEbeta7-transfected 293 cells (human, UniProt P38570 19-1179; P26010 20-798)
- T1 construct: whole, on cells; also called alphaEbeta7 293 cells
- T1 sequence (P38570 19-1179, chain 1 of 2): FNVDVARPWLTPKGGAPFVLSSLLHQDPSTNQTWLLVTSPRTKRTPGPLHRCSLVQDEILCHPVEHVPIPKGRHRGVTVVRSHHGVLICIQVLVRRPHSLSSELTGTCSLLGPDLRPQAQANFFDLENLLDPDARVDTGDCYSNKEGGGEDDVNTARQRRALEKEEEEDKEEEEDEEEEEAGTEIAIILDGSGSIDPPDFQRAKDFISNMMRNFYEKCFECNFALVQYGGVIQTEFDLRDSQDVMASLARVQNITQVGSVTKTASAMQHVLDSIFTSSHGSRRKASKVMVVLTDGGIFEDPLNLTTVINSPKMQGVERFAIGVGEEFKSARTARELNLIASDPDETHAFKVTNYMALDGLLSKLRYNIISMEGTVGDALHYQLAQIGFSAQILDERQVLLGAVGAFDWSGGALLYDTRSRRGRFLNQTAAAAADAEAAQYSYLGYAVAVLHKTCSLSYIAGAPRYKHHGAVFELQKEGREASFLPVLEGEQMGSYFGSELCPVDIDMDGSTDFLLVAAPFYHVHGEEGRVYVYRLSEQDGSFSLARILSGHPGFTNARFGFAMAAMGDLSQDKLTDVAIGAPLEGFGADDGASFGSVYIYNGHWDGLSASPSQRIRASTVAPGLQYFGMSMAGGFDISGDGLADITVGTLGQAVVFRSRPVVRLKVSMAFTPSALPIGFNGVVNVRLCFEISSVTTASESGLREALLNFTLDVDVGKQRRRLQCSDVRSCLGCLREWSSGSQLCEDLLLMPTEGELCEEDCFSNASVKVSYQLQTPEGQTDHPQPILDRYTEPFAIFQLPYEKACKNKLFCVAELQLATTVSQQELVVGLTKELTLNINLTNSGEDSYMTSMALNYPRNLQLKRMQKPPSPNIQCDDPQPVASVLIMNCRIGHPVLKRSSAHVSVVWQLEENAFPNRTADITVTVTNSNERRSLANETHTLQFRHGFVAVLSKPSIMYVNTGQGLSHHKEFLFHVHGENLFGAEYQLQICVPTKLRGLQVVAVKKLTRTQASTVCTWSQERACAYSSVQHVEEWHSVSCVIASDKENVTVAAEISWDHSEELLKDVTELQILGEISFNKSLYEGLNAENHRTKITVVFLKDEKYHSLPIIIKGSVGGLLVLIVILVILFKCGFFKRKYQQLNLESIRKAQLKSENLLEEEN
- T1 sequence (P26010 20-798, chain 2 of 2): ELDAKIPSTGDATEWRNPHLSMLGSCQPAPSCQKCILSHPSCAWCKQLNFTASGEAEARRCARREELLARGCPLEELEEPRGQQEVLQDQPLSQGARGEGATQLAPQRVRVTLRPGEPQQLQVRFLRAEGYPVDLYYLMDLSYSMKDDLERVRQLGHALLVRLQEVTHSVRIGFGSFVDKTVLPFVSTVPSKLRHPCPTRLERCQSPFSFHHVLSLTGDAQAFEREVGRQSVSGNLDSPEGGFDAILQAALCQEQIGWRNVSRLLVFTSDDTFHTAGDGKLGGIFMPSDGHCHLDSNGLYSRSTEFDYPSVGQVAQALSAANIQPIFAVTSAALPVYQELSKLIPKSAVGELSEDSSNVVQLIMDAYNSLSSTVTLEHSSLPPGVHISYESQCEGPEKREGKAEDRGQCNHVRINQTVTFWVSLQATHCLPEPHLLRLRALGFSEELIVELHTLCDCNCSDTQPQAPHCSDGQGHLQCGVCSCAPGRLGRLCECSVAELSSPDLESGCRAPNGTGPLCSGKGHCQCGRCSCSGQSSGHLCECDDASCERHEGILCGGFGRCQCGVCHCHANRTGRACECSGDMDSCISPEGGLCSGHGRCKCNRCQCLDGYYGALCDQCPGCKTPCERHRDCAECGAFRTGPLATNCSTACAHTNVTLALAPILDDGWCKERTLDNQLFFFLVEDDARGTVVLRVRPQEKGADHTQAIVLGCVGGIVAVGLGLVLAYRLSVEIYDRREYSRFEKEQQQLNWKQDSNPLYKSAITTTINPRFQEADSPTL
- methodSummary: cell adhesion inhibition, alphaEbeta7 293 cells on coated huE-Cadherin, experiment 2 of 3
measurementType: IC90 (nM)

{"columns": ["binder", "resultUnit", "number"],
 "data": [
  ["Variant hu504.5, IgG (antibody, name in Kabat numbering, V domains shown) VH: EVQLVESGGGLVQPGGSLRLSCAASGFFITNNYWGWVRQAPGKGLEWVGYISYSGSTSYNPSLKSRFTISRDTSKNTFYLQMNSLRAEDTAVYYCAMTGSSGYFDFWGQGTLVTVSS VL: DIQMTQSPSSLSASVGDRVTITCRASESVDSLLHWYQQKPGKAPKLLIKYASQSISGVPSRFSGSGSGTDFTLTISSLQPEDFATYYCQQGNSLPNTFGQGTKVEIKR", "nM", 28.7],
  ["Variant hu504.32, IgG (antibody, V domains shown, methionine at heavy chain position 94; also called hu504.32M; 504.32M) VH: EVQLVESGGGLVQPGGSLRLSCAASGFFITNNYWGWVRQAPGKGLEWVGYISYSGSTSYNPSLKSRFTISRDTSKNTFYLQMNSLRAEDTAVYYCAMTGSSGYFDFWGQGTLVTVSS VL: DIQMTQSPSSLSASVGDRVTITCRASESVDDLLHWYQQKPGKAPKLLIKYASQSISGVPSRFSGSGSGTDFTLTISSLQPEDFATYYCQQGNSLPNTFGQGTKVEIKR", "nM", 24.5],
  ["Variant hu504.16, IgG (antibody, name in Kabat numbering, V domains shown) VH: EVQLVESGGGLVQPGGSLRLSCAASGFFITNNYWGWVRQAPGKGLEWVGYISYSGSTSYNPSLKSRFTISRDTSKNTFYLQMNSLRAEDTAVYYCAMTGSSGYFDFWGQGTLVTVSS VL: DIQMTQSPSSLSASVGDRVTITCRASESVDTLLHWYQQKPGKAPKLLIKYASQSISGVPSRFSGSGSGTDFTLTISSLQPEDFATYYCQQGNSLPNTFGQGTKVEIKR", "nM", 33.7],
  ["Rat Fib504 (antibody FIB504.64 produced by hybridoma ATCC HB-293) (antibody, V domains shown, Whole rat antibody in the cell adhesion assays; also called rat anti-mouse beta7 antibody) VH: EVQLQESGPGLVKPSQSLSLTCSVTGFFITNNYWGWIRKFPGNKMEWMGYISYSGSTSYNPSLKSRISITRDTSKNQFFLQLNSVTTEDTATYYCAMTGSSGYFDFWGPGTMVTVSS VL: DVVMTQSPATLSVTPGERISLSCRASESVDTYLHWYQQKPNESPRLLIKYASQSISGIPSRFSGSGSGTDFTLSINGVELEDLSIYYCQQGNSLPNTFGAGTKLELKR", "nM", 24.5]
]}

The values you see were collected from patent US20090226437A1.
